Target: BRM (Homo sapiens)
Construct: made in house; host or cells: High Five insect cells
Experiment: ATPase catalytic activity of BRM, ADP-Glo in vitro biochemical assay
Settings: ATPase catalytic activity, ADP-Glo; 30 nM BRM, 400 μM ATP
observable: IC50 (nM)

[[record]]
molecule = "CO[C@H](c1ccc2c(n1)N(c1ccc3cnc(CNC(=O)c4ccc5c(c4)S(=O)(=O)CCOC5)cc3n1)CCC2)C1CC1 [Compound 664]"
recorded_value = 1750

[[record]]
molecule = "Cc1cc(C(=O)NCc2cc3nc(-c4cccc(N5C[C@@H](C)O[C@@H](C)C5)n4)ccc3cn2)cc2c1OCC[C@@H](C)S2(=O)=O [Compound 461]"
recorded_value = 1590

[[record]]
molecule = "O=C(NCc1cc2nc(N3CCCc4ccc([C@H]5CC5(F)F)nc43)ccc2cn1)c1ccc2c(c1)S(=O)(=O)CCOC2 [Compound 690]"
recorded_value = 23.5

[[record]]
molecule = "O=C(NCc1cc2nc(N3CCOc4cccnc43)ccc2cn1)c1ccc2c(c1)S(=O)(=O)CCOC2 [Compound 367]"
recorded_value = 8.4


---

Molecular target: BRM (Homo sapiens)
Construct: made in house; host or cells: High Five insect cells
Assay: ATPase catalytic activity of BRM, ADP-Glo in vitro biochemical assay
Conditions: selectivity ratio BRG1 IC50 / BRM IC50
observable: Ratio* (BRG1 IC50 (μM) divided by BRM IC50 (μM))

[[record]]
molecule = "COCCN1CCCc2ccc(-c3ccc4cnc(CNC(=O)c5ccc6c(c5)S(=O)(=O)CCOC6)cc4n3)nc21"
recorded_value = 7.52

[[record]]
molecule = "CCO[C@H]1CCOc2c(-c3ccc4cnc(CNC(=O)c5ccc6c(c5)S(=O)(=O)CCOC6)cc4n3)cccc21"
recorded_value = 7.78

[[record]]
molecule = "CC(c1cccc(-c2ccc3cnc(CNC(=O)c4ccc5c(c4)S(=O)(=O)CCOC5)cc3n2)n1)C(F)F (centres unmarked)"
recorded_value = 10.23

[[record]]
molecule = "O=C(NCc1cc2cc(-c3cccc(N4CCC4)n3)ccc2cn1)c1ccc2c(c1)S(=O)(=O)CCOC2"
recorded_value = 12.70

[[record]]
molecule = "Cc1cc2c(-c3ccc4cnc(CNC(=O)c5ccc(Cl)c(S(C)(=O)=O)c5)cc4n3)cccc2n1C"
recorded_value = 11.91


---

Each entry below carries its reported pIC50.
Target: BRG-1 (Homo sapiens, UniProt P51532)
Construct: made in house; host or cells: High Five insect cells
Sequence (P51532 whole entry): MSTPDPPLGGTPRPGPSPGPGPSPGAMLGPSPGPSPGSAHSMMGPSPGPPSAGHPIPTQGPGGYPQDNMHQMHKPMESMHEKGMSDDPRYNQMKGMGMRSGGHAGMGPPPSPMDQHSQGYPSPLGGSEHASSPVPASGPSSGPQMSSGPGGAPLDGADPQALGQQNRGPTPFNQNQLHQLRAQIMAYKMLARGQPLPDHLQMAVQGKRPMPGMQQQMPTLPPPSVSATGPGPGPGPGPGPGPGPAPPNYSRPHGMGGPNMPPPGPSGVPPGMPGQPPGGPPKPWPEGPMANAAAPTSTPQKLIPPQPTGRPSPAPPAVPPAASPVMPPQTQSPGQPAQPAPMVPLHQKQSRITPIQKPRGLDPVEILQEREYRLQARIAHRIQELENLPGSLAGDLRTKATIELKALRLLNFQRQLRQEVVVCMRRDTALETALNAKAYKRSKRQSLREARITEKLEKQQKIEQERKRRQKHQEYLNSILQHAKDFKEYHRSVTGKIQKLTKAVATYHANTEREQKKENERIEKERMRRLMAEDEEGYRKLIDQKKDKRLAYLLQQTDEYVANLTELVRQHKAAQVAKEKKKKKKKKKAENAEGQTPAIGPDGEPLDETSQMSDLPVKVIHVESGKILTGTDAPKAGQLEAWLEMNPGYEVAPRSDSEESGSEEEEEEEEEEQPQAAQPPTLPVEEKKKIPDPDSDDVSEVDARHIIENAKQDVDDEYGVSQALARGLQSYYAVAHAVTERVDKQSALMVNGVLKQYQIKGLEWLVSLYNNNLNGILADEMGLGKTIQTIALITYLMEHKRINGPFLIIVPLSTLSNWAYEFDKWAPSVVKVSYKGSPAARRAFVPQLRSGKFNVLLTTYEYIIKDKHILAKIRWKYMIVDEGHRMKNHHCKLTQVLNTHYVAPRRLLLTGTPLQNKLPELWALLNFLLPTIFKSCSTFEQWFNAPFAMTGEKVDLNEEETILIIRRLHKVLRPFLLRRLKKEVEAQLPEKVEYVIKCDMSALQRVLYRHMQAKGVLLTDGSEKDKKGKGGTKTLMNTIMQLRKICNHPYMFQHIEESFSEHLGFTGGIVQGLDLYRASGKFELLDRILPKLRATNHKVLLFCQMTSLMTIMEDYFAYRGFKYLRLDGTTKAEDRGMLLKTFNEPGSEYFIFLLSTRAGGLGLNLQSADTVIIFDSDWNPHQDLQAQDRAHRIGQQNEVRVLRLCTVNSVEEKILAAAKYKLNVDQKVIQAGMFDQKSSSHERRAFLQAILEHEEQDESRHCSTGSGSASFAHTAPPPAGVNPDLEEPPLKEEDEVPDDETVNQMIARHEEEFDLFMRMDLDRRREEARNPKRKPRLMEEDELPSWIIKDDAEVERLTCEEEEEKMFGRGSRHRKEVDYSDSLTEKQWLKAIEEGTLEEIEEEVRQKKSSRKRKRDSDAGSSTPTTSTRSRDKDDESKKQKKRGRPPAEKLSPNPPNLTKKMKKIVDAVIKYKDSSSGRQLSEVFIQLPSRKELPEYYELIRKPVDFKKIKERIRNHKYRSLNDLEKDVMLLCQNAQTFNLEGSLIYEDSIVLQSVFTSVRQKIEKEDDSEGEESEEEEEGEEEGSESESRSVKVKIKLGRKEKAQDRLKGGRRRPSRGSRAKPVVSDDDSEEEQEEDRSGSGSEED
Experiment: ATPase catalytic activity of BRG-1, ADP-Glo in vitro biochemical assay
Conditions: ATPase catalytic activity, ADP-Glo; 30 nM BRG-1, 400 μM ATP; read-out: BRG1 IC50
pIC50: −log10 of the molar value.
observable: pIC50

[[record]]
item_smiles = "N#Cc1ccc2c(c1)CCCN2c1ccc2cnc(CNC(=O)c3ccc4c(c3)S(=O)(=O)CCOC4)cc2n1"
recorded_value = 6.75

[[record]]
item_smiles = "COCc1cc2c(nc1C)N(c1ccc3cnc(CNC(=O)c4ccc5c(c4)S(=O)(=O)CCOC5)cc3n1)CCC2"
recorded_value = 6.75

[[record]]
item_smiles = "C[C@H]1COCc2ccc(C(=O)NCc3cc4nc(-c5cccc(C6CC6)n5)cnc4cn3)cc2S1(=O)=O"
recorded_value = 5.90

[[record]]
item_smiles = "COCCN(c1cccc(-c2ccc3cnc(CNC(=O)c4ccc5c(c4)S(=O)(=O)CCOC5)cc3n2)n1)C1CCC1"
recorded_value = 7.15

[[record]]
item_smiles = "C[C@@H]1CN(c2cccc(-c3ccc4cnc(CNC(=O)c5ccc6c(c5)S(=O)(=O)CCC(F)(F)C6)cc4n3)n2)C[C@H](C)O1"
recorded_value = 7.19

[[record]]
item_smiles = "C/C(F)=C/c1ccc(C(=O)NCc2cc3nc(-c4cccc(N5C[C@@H](C)O[C@@H](C)C5)n4)ccc3cn2)cc1S(C)(=O)=O"
recorded_value = 5.77

[[record]]
item_smiles = "Cc1ccnc2c1N(C)CCN2c1ccc2cnc(CNC(=O)c3ccc4c(c3)S(=O)(=O)CCOC4)cc2n1"
recorded_value = 6.50

[[record]]
item_smiles = "Cc1cc2c(-c3ccc4cnc(CNC(=O)c5ccc6c(c5)S(=O)(=O)CCOC6)cc4n3)cncc2n1C"
recorded_value = 6.69


---

Biological target: BRM (Homo sapiens, UniProt P51531)
Construct: made in house; host or cells: High Five insect cells
Sequence (P51531 whole entry): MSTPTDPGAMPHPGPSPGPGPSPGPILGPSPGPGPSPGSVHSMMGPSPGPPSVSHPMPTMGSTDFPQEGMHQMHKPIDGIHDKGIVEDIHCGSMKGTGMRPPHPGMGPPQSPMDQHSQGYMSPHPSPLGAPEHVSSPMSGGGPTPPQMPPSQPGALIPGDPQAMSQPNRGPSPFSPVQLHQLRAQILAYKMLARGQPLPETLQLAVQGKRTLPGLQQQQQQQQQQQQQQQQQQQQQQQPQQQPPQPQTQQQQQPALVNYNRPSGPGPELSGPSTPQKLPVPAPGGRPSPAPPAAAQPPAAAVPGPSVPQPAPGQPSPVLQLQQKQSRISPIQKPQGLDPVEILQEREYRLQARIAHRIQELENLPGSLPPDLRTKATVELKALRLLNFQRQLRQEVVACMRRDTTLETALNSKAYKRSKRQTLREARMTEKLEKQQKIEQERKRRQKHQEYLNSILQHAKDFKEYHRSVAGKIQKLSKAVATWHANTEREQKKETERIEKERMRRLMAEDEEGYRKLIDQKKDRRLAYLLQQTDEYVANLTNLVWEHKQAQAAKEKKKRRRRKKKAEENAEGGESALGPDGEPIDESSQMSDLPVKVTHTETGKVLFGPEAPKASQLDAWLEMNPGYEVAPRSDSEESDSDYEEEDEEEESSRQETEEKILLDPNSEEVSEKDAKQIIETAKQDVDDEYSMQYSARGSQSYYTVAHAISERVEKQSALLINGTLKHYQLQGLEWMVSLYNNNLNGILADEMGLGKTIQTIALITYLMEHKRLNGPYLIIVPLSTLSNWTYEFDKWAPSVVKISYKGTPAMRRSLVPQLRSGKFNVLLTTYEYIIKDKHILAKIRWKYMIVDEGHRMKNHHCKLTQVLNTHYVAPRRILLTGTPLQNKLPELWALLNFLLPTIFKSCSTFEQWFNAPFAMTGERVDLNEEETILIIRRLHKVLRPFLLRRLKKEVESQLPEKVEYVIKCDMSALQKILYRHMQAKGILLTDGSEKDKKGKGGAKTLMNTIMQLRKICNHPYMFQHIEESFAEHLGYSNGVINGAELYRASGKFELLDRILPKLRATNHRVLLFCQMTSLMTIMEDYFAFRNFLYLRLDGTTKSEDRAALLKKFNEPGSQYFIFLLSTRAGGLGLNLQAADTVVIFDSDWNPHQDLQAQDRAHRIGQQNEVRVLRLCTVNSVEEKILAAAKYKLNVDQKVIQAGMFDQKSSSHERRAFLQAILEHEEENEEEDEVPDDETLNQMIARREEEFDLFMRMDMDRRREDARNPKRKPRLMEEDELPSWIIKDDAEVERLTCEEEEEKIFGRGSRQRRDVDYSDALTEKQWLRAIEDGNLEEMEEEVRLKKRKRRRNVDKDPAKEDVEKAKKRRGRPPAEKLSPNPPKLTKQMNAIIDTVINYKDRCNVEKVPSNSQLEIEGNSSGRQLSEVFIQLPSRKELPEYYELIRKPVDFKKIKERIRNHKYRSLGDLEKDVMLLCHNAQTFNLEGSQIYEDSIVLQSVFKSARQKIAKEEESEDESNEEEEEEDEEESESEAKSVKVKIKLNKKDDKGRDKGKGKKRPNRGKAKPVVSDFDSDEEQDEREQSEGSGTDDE
Assay: ATPase catalytic activity of BRM, ADP-Glo in vitro biochemical assay
Conditions: ratio BRG1 IC50 / BRM IC50
observable: Ratio*

[[record]]
molecule = "Cc1ccc2c(c1)OCCN2c1ccc2cnc(CNC(=O)c3cnc4c(c3)S(=O)(=O)[C@@H](C)COC4)cc2n1 [Compound 749]"
test_system = "BRM (Homo sapiens, UniProt P51531)"
recorded_value = 16.64

[[record]]
molecule = "COCc1cc2c(nc1C(F)F)N(c1ccc3cnc(CNC(=O)c4ccc5c(c4)S(=O)(=O)CCOC5)cc3n1)CCC2 [Compound 835]"
test_system = "BRM (Homo sapiens, UniProt P51531)"
recorded_value = 9.15

[[record]]
molecule = "C[C@@H]1CN(c2cccc(-c3ccc4cnc(CNC(=O)c5cnc6c(c5)S(=O)(=O)[C@@H](C)COC6)cc4c3)n2)C[C@H](C)O1 [Compound 769]"
test_system = "BRM (Homo sapiens, UniProt P51531)"
recorded_value = 3.16

[[record]]
molecule = "[2H]C1([2H])OC([2H])([2H])[C@H](C)S(=O)(=O)c2cc(C(=O)NCc3cc4nc(-c5cccc(N6C[C@@H](C)O[C@@H](C)C6)n5)ccc4cn3)ccc21 [Compound 715]"
test_system = "BRM (Homo sapiens, UniProt P51531)"
recorded_value = 4.12

[[record]]
molecule = "COc1ncccc1-c1ccc2cnc(CNC(=O)c3ccc4c(c3)S(=O)(=O)CCOC4)cc2n1 [Compound 808]"
test_system = "BRM (Homo sapiens, UniProt P51531)"
recorded_value = 12.50

[[record]]
molecule = "O=C(NCc1cc2nc(N3CCOc4cc(C5CC5)ncc43)ccc2cn1)c1ccc2c(c1)S(=O)(=O)CCOC2 [Compound 739]"
test_system = "BRM (Homo sapiens, UniProt P51531)"
recorded_value = 17.37

[[record]]
molecule = "COc1cccc2c1CCCN2c1ccc2cnc(CNC(=O)c3cnc4c(c3)S(=O)(=O)[C@@H](C)COC4)cc2n1 [Compound 733]"
test_system = "BRM (Homo sapiens, UniProt P51531)"
recorded_value = 8.96

[[record]]
molecule = "CN(c1cnc2c(c1)OCCN2c1ccc2cnc(CNC(=O)c3ccc4c(c3)S(=O)(=O)CCOC4)cc2n1)C1CC(F)(F)C1 [Compound 817]"
test_system = "BRM (Homo sapiens, UniProt P51531)"
recorded_value = 11.55

[[record]]
molecule = "O=C(NCc1cc2nc(-c3ccccc3OCC3CC3)ccc2cn1)c1ccc2c(c1)S(=O)(=O)CCOC2 [Compound 815]"
test_system = "BRM (Homo sapiens, UniProt P51531)"
recorded_value = 7.51

[[record]]
molecule = "COc1nn(C(F)F)cc1-c1ccc2cnc(CNC(=O)c3ccc4c(c3)S(=O)(=O)CCOC4)cc2n1 [Compound 806]"
test_system = "BRM (Homo sapiens, UniProt P51531)"
recorded_value = 8.67

[[record]]
molecule = "CN(C)c1cnc2c(c1)OCCN2c1ccc2cnc(CNC(=O)c3ccc4c(c3)S(=O)(=O)CCOC4)cc2c1 [Compound 790]"
test_system = "BRM (Homo sapiens, UniProt P51531)"
recorded_value = 5.03


---

Biological target: BRM (Homo sapiens, UniProt P51531)
Construct: made in house; host or cells: High Five insect cells
Experiment: ATPase catalytic activity of BRM, ADP-Glo in vitro biochemical assay
Conditions: ratio BRG1 IC50 / BRM IC50
Procedure: The ATPase catalytic activity of BRM or BRG-1 was measured by an in vitro biochemical assay using ADP-Glo™ (Promega, V9102). The ADP-Glo™ kinase assay is performed in two steps once the reaction is complete. The first step is to deplete any unconsumed ATP in the reaction. The second step is to convert the reaction product ADP to ATP, which will be utilized by the luciferase to generate luminesce and be detected by a luminescence reader, such as Envision. […]
Kindly note that classification relies on Ratio* with these boundaries: band 1 = under 10, band 2 = from 10 up to 20, band 3 = 20 and over

[[record]]
compound = "Cn1cc(-c2ccc3cnc(CNC(=O)c4ccc5c(c4)S(=O)(=O)CCOC5)cc3n2)c(OC(F)F)n1 [Compound 812]"
answer_label = "band 2"

[[record]]
compound = "COc1ccc2c(c1)N(c1ccc3cnc(CNC(=O)c4ccc5c(c4)S(=O)(=O)CCOC5)cc3n1)CCO2 [Compound 776]"
answer_label = "band 2"

[[record]]
compound = "O=C(NCc1cc2nc(N3CCCc4cnc(OC5CC5)cc43)ccc2cn1)c1ccc2c(c1)S(=O)(=O)CCOC2 [Compound 852]"
answer_label = "band 2"

[[record]]
compound = "O=C(NCc1cc2nc(N3CCOc4cc(C(F)F)ncc43)ccc2cn1)c1ccc2c(c1)S(=O)(=O)CCOC2 [Compound 777]"
answer_label = "band 2"

[[record]]
compound = "Cn1cccc(-c2ccc3cnc(CNC(=O)c4ccc5c(c4)S(=O)(=O)CCOC5)cc3n2)c1=O [Compound 826]"
answer_label = "band 1"

[[record]]
compound = "COCc1ccc2c(c1F)N(c1ccc3cnc(CNC(=O)c4ccc5c(c4)S(=O)(=O)CCOC5)cc3n1)CCC2 [Compound 711]"
answer_label = "band 3"

[[record]]
compound = "C[C@@H]1CN(c2cccc(-c3cnc4cnc(CNC(=O)c5ccc6c(c5)S(=O)(=O)[C@@H](C)COC6)cc4n3)n2)C[C@H](C)O1 [Compound 710]"
answer_label = "band 1"

[[record]]
compound = "O=C(NCc1cc2nc(N3CCOc4cc(Cl)cc(F)c43)ccc2cn1)c1cc(F)c2c(c1)S(=O)(=O)CCOC2 [Compound 773]"
answer_label = "band 3"

[[record]]
compound = "COc1ncc(F)c2c1CCCN2c1ccc2cnc(CNC(=O)c3ccc4c(c3)S(=O)(=O)CCOC4)cc2n1 [Compound 825]"
answer_label = "band 1"

[[record]]
compound = "O=C(NCc1cc2nc(N3CCCc4ccc(OCC5CCO5)cc43)ccc2cn1)c1ccc2c(c1)S(=O)(=O)CCOC2 (stereo not shown) [Compound 735]"
answer_label = "band 2"

[[record]]
compound = "O=C(NCc1cc2nc(N3CCOc4cc(N5CCC(F)(F)C5)cnc43)ccc2cn1)c1ccc2c(c1)S(=O)(=O)CCOC2 [Compound 758]"
answer_label = "band 2"

[[record]]
compound = "O=C(NCc1cc2cc(N3CCOc4cnc(C5CC5)nc43)ccc2cn1)c1ccc2c(c1)S(=O)(=O)CCOC2 [Compound 822]"
answer_label = "band 2"

[[record]]
compound = "O=C(NCc1cc2nc(N3CCC4(CCC4)c4cccnc43)ccc2cn1)c1ccc2c(c1)S(=O)(=O)CCOC2 [Compound 723]"
answer_label = "band 2"

[[record]]
compound = "C[C@@H]1CN(c2cccc(-c3ccc4cnc(CNC(=O)c5ccc6c(c5)S(=O)(=O)CCC5(CC5)O6)cc4n3)n2)C[C@H](C)O1 [Compound 704]"
answer_label = "band 3"

[[record]]
compound = "O=C(NCc1cc2cc(N3CCCc4cc(-c5cn[nH]c5)ccc43)ccc2cn1)c1ccc2c(c1)S(=O)(=O)CCOC2 [Compound 789]"
answer_label = "band 1"

